Assay: Half life in rat liver microsomes at 2 uM
Format: ADME
Measured log10 half-life at 2 µM values are reported for all entries that follow.
In plain terms, each number is the log10 of measured half-life at 2 µM in h.

CCOc1nc(NC(=O)C(C)(C)NC(=O)c2ccc3c(c2)c(C)c(-c2ccc(F)cn2)n3C2CCCCC2)cnc1/C=C/C(=O)O; 0.11
CCOc1nc(NC(=O)C2(NC(=O)c3ccc4c(C5CCCC5)c(-c5ccc(F)cn5)n(C)c4c3)CCC2)ccc1/C=C/C(=O)O; -0.02

Qu. Find the recorded log10 half-life at 2 µM belonging to "CCOc1nc(NC(=O)C(C)(C)NC(=O)c2ccc3c(C4CCCC4)c(-c4ncc(Cl)cn4)n(C)c3c2)cnc1/C=C/C(=O)O" and report it.
Ans. 0.26

Qu. Find the recorded log10 half-life at 2 µM belonging to "COc1nc(NC(=O)C2(NC(=O)c3ccc4c(C5CCCC5)c(-c5ccccn5)n(C)c4c3)CCC2)ccc1/C=C/C(=O)O" and report it.
Ans. -0.78

Qu. Find the recorded log10 half-life at 2 µM belonging to "CCOc1nc(NC(=O)C(C)(C)NC(=O)c2ccc3c(C4CCCC4)c(-c4cncnc4)n(C)c3c2)ccc1/C=C/C(=O)O" and report it.
Ans. 0.10

Qu. Find the recorded log10 half-life at 2 µM belonging to "CCOc1nc(NC(=O)C2(NC(=O)c3ccc4c(c3)c(C)c(-c3ccc(F)cn3)n4C3CCCCC3)CCC2)ccc1/C=C/C(=O)O" and report it.
Ans. -0.17

Qu. Find the recorded log10 half-life at 2 µM belonging to "CCOc1nc(NC(=O)C(C)(C)NC(=O)c2ccc3c(C4CCCC4)c(-c4ccc(F)cn4)n(C)c3c2)ccc1/C=C/C(=O)O" and report it.
Ans. 0.11

Qu. Find the recorded log10 half-life at 2 µM belonging to "CCOc1nc(NC(=O)C2(NC(=O)c3ccc4c(C5CCCC5)c(-c5ccccn5)n(C)c4c3)CCC2)cnc1/C=C/C(=O)O" and report it.
Ans. -0.21

====

Measured concentration at 1 h values are reported for all entries that follow.
Assay: Plasma concentration in rat at 2 mg/kg, po each in 0.5% Methylcellulose and 0.3% Tween-80 and 1% N-methylpyrrolidone after 1 hr
Format: ADME, organism-based
Design: dose 2 mg/kg, route oral
Please provide the amount together with its unit, number first.

CCOc1nc(NC(=O)C(C)(C)NC(=O)c2ccc3c(C4CCCC4)c(-c4cncnc4)n(C)c3c2)ccc1/C=C/C(=O)O; 200 nM
CCOc1nc(NC(=O)C(C)(C)NC(=O)c2ccc3c(c2)c(C)c(-c2ccc(F)cn2)n3C2CCCCC2)cnc1/C=C/C(=O)O; 300 nM
CCOc1nc(NC(=O)C2(NC(=O)c3ccc4c(C5CCCC5)c(-c5ccccn5)n(C)c4c3)CCC2)cnc1/C=C/C(=O)O; 500 nM

Qu. Find the recorded concentration at 1 h belonging to "CCOc1nc(NC(=O)C2(NC(=O)c3ccc4c(C5CCCC5)c(-c5cnccn5)n(C)c4c3)CCCC2)cnc1/C=C/C(=O)O" and report it.
Ans. 400 nM

====

Measured EC50 values are reported for all entries that follow.
Test system: Hepatitis C virus
Experiment: Antiviral activity against Hepatitis C virus genotype 1b infected in human Huh cells assessed as inhibition of viral replication by RT-PCR-based replicon assay
Format: functional, cell-based, Hepacivirus hominis
Quick reminder: number only, in nM, skip the unit.

Observe how each entry below is paired with its result.
COc1nc(NC(=O)C2(NC(=O)c3ccc4c(C5CCCC5)c(-c5ccc(Cl)cn5)n(C)c4c3)CCC2)cnc1/C=C/C(=O)O; 56
CCOc1nc(NC(=O)C(C)(C)NC(=O)c2ccc3c(C4CCCC4)c(-c4ccc(F)cn4)n(C)c3c2)cnc1/C=C/C(=O)O; 18
CCOc1nc(NC(=O)C2(NC(=O)c3ccc4c(C5CCCC5)c(-c5ccccn5)n(C)c4c3)CCCC2)ccc1/C=C/C(=O)O; 4

# ---- query compound ----
Qu. Find the recorded EC50 belonging to "CCOc1nc(NC(=O)C(C)(C)NC(=O)c2ccc3c(C4CCCC4)c(-c4ncc(Cl)cn4)n(C)c3c2)cnc1/C=C/C(=O)O" and report it.
Ans. 12

====

Measured Vd values are reported for all entries that follow.
Experiment: Volume of distribution at steady state in rat at 5 mg/kg, po and 2 mg/kg, iv
Assay type: ADME, organism-based
Settings: in vivo, read-out: Vdss
Quick reminder: number only, in L/kg, skip the unit.

Observe how each entry below is paired with its result.
CCOc1nc(NC(=O)C2(NC(=O)c3ccc4c(C5CCCC5)c(-c5ccc(F)cn5)n(C)c4c3)CCC2)ccc1/C=C/C(=O)O; 0.44
CCOc1nc(NC(=O)C(C)(C)NC(=O)c2ccc3c(C4CCCC4)c(-c4ccc(F)cn4)n(C)c3c2)ccc1/C=C/C(=O)O; 1.43

Qu. Find the recorded Vd belonging to "CCOc1nc(NC(=O)C2(NC(=O)c3ccc4c(c3)c(C)c(-c3ccc(F)cn3)n4C3CCCCC3)CCC2)ccc1/C=C/C(=O)O" and report it.
Ans. 0.4

====

Experiment: Clearance in dog at 5 mg/kg, po and 2 mg/kg, iv
Assay type: ADME, organism-based, Canis lupus familiaris
Settings: in vivo
Assay readout: clearance (mL/min/kg)
Quick reminder: number only, in mL/min/kg, skip the unit.

Qu. Find the recorded clearance belonging to "CCOc1nc(NC(=O)C2(NC(=O)c3ccc4c(C5CCCC5)c(-c5ccc(F)cn5)n(C)c4c3)CCC2)ccc1/C=C/C(=O)O" and report it.
Ans. 1.9

Qu. Find the recorded clearance belonging to "CCOc1nc(NC(=O)C(C)(C)NC(=O)c2ccc3c(C4CCCC4)c(-c4ccc(F)cn4)n(C)c3c2)ccc1/C=C/C(=O)O" and report it.
Ans. 4.6

Qu. Find the recorded clearance belonging to "CCOc1nc(NC(=O)C2(NC(=O)c3ccc4c(c3)c(C)c(-c3ccc(F)cn3)n4C3CCCCC3)CCC2)ccc1/C=C/C(=O)O" and report it.
Ans. 1.9

====

Assay: Cmax in rat at 5 mg/kg, po and 2 mg/kg, iv
Type: ADME, organism-based
Conditions: in vivo
Measured Cmax values are reported for all entries that follow.
Quick reminder: number only, in µM, skip the unit.

Qu. Find the recorded Cmax belonging to "CCOc1nc(NC(=O)C2(NC(=O)c3ccc4c(C5CCCC5)c(-c5ccc(F)cn5)n(C)c4c3)CCC2)ccc1/C=C/C(=O)O" and report it.
Ans. 5

Qu. Find the recorded Cmax belonging to "CCOc1nc(NC(=O)C(C)(C)NC(=O)c2ccc3c(C4CCCC4)c(-c4ccc(F)cn4)n(C)c3c2)ccc1/C=C/C(=O)O" and report it.
Ans. 3.6

Qu. Find the recorded Cmax belonging to "CCOc1nc(NC(=O)C2(NC(=O)c3ccc4c(c3)c(C)c(-c3ccc(F)cn3)n4C3CCCCC3)CCC2)ccc1/C=C/C(=O)O" and report it.
Ans. 4.5

====

Test system: Hepatitis C virus
Assay: Antiviral activity against Hepatitis C virus genotype 1b infected in human Huh cells assessed as inhibition of viral replication by RT-PCR-based replicon assay
Format: functional, cell-based, Hepacivirus hominis
Assay readout: log10(EC50) (log10 of the value in nM)
In plain terms, each number is the log10 of measured EC50 in nM.

Observe how each entry below is paired with its result.
CCOc1nc(NC(=O)C2(NC(=O)c3ccc4c(C5CCCC5)c(-c5ncc(Cl)cn5)n(C)c4c3)CCC2)ccc1/C=C/C(=O)O; 1.11
COc1nc(NC(=O)C(C)(C)NC(=O)c2ccc3c(C4CCCC4)c(-c4ccc(F)cn4)n(C)c3c2)ccc1/C=C/C(=O)O; 1.08

Qu. Find the recorded log10(EC50) belonging to "CCOc1nc(NC(=O)C2(NC(=O)c3ccc4c(C5CCCC5)c(-c5ncc(Br)cn5)n(C)c4c3)CCCC2)ccc1/C=C/C(=O)O" and report it.
Ans. 0.70

====

Test system: Hepatitis C virus
Assay: Antiviral activity against Hepatitis C virus genotype 1b infected in human Huh cells assessed as inhibition of viral replication by RT-PCR-based replicon assay
Type: functional, cell-based, Hepacivirus hominis
pEC50: −log10 of the molar value.
// -1 strictly below 8 in pEC50; 1 otherwise

COc1nc(NC(=O)C2(NC(=O)c3ccc4c(C5CCCC5)c(-c5ncc(Br)cn5)n(C)c4c3)CCCC2)cnc1/C=C/C(=O)O; -1
COc1nc(NC(=O)C2(NC(=O)c3ccc4c(C5CCCC5)c(-c5ccccn5)n(C)c4c3)CCCC2)cnc1/C=C/C(=O)O; -1

Qu. Test whether the compound "CCOc1nc(NC(=O)C2(NC(=O)c3ccc4c(C5CCCC5)c(-c5cnccn5)n(C)c4c3)CCCC2)cnc1/C=C/C(=O)O" records pEC50 of 8 or higher.
Ans. 1

====

Assay: Half life in cynomolgous monkey at 5 mg/kg, po and 2 mg/kg, iv
Type: ADME, organism-based, Macaca fascicularis
Conditions: cynomolgus monkey, in vivo
Assay readout: half-life (h)
Quick reminder: number only, in h, skip the unit.

Observe how each entry below is paired with its result.
CCOc1nc(NC(=O)C(C)(C)NC(=O)c2ccc3c(C4CCCC4)c(-c4ccc(F)cn4)n(C)c3c2)ccc1/C=C/C(=O)O; 0.7
CCOc1nc(NC(=O)C2(NC(=O)c3ccc4c(C5CCCC5)c(-c5ccc(F)cn5)n(C)c4c3)CCC2)ccc1/C=C/C(=O)O; 2.3

Qu. Find the recorded half-life belonging to "CCOc1nc(NC(=O)C2(NC(=O)c3ccc4c(c3)c(C)c(-c3ccc(F)cn3)n4C3CCCCC3)CCC2)ccc1/C=C/C(=O)O" and report it.
Ans. 2.4
